Target: T1, GFP-9S library array, motif 4 ND N98E;D124L (synthetic construct, N98E;D124L)
T1 chain: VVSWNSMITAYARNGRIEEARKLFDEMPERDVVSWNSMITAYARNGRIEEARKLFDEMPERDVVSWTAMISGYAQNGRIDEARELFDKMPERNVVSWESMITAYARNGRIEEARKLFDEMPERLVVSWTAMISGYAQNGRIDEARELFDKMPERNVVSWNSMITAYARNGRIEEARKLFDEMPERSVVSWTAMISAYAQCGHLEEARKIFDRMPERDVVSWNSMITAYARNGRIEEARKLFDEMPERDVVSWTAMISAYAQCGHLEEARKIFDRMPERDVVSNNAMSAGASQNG
Assay: high-throughput RNA pulldown from lysate on Ni-NTA beads; HRP: 50 mM Tris pH 8, 150 mM NaCl, 1 mM beta-mercaptoethanol, 50 ug/ml BSA, 3 ug/ml yeast RNA, 0.5% heparin; ITC and FP: Tris pH 8, 200 mM KCl, 5% glycerol; MST: 50 mM Tris pH 8, 200 mM NaCl, 1 mM DTT, BSA, heparin, 0.05% Tween 20
Details: tags: N-terminal His-eGFP; label: 5' Cy5
For each entry below, report its Kd value.
One number for each entry, in µM.

{"binder": "AUUAGACGUGA (ssRNA) [Cy5-rpoA-G]", "uom": "µM", "measured-result": 0.069}

Now take the following binder into account.
Ask: For the binder shown here, AUUACACGUGA (ssRNA) [Cy5-rpoA] , give the reported Kd.
Reply: 0.0631
